Listing of recorded ΔTm at 100 µM by entry.
- Test System: p53 Y220C mutant protein (amino acid residues 94-293) (Homo sapiens, UniProt P04637, Y220C)
- Construct: p53 Y220C mutant protein (amino acid residues 94-293)
- Test Details: Thermal Shift Assay (TSA), dTM
- Format: binding
- Condition Parameters: thermal shift, 100 uM compound; read-out: TSA P53 Y220C dTM (100 uM)

CNC(=O)c1ccc(NCC#Cc2nc3c(NCC4(F)CNC4)cccn3c2SC(F)(F)F)c(OC)c1 [Example 197] = ≥ 10 °C

What value of measured ΔTm at 100 µM is listed for COc1cc(S(C)(=O)=O)ccc1NCC#Cc1nc2c(NC3CCN(C4CC4)CC3)cccn2c1CC(F)(F)F [Example 7] ?
5 to 10 °C

What measured ΔTm at 100 µM goes with CNC(=O)c1ccc(OC)c(NCC#Cc2nc3c(N[C@@H]4CCNC[C@@H]4F)cccn3c2SC(F)(F)F)n1 [Example 217] ?
≥ 10 °C

Could you share which ΔTm at 100 µM value was measured for CNC(=O)c1cc(NCC#Cc2nc3c(N[C@@H]4CCN(C)C[C@@H]4F)cccn3c2SC(F)(F)F)c(OC)cc1F [Example 170] ?
≥ 10 °C
